biological target: T1, recombinant human VEGF165 (human, UniProt P15692 27-191); assay: Biacore SPR, VEGF immobilized, pH 5
T1 construct: mature; Isoform VEGF165 of the entry; also called hVEGF165; hVEGF
T1 sequence (P15692 other isoform, or with tags, fused parts or gaps): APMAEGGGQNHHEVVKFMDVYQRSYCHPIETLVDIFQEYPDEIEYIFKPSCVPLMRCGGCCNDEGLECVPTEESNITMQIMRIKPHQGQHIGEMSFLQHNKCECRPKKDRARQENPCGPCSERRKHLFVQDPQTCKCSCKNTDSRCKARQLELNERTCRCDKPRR
Observation Type: Kd (nM)
Please reply with the bare figure in nM and do not write the unit itself.

Examples from the recorded data:
# Binder, Numeric Result
data = [
    ("578 wildtype C-His (scFv, not shown: small tags and cut ends, Rabbit wild type single chain) scFv: DVVMTQTPSSVSAAVGDTVTINCQASEIIHSWLAWYQQKPGQPPKLLIYLASTLASGVPSRFKGSGSGTQFTLTISDLECADAAIYYCQNVYLASTNGANFGGGTEVVVKGGGGSGGGGSGGGGSGGGGSQSVEESGGRLVTPGTPLTLTCTASGFSLTDYYYMTWVRLAPGKGLEYIGFIDPDDDPYYATWAKGRFTISRTSTTVNLKMTSPTTEDTATYFCAGGDHNSGWGLDIWGPGTLVTVSL", 0.2),
    ("578min_max T84N (scFv, the VH entry already carries T84N; tied by name; also called Protein Nr) scFv: EIVMTQSPSTLSASVGDRVIITCQASEIIHSWLAWYQQKPGKAPKLLIYLASTLASGVPSRFSGSGSGAEFTLTISSLQPDDFATYYCQNVYLASTNGANFGQGTKLTVLGGGGGSGGGGSGGGGSGGGGSEVQLVESGGGLVQPGGSLRLSCTASGFSLTDYYYMTWVRQAPGKGLEWVGFIDPDDDPYYATWAKGRFTISRDNSKNTVYLQMNSLRAEDTAVYYCAGGDHNSGWGLDIWGQGTLVTVSS", 0.971),
]

If you can, please state the reported Kd value of 578min_max V89L (scFv, the VH entry already carries V89L; tied by name; also called Protein Nr; 980) scFv: EIVMTQSPSTLSASVGDRVIITCQASEIIHSWLAWYQQKPGKAPKLLIYLASTLASGVPSRFSGSGSGAEFTLTISSLQPDDFATYYCQNVYLASTNGANFGQGTKLTVLGGGGGSGGGGSGGGGSGGGGSEVQLVESGGGLVQPGGSLRLSCTASGFSLTDYYYMTWVRQAPGKGLEWVGFIDPDDDPYYATWAKGRFTISRDTSKNTLYLQMNSLRAEDTAVYYCAGGDHNSGWGLDIWGQGTLVTVSS .
2.13

The values you see were collected from patent US20150274820A1.
